Assay: Lipophilicity, log P of the compound
Conditions: octanol/water, logP
# label = true (1) if logP < 0.7 else false (0)

input: Confirm or reject: logP of NNC(=O)c1ccccc1[N+](=O)[O-] lies strictly below 0.7
output: true (1)

input: # TODO verify logP < 0.7 strictly for this compound: CC(C)(C#N)NNC(=O)c1cccs1
output: true (1)

input: Report whether reported logP is lower than 0.7 (strictly) for O=C(NNC(=O)c1ccco1)c1ccco1
output: false (0)

input: Does Cn1cncc1C(=O)NN have logP strictly under 0.7?
output: true (1)

input: Please check: logP for O=C(NNS(=O)(=O)c1ccc([N+](=O)[O-])cc1)c1ccncc1 , strictly under 0.7 or not?
output: true (1)

input: Just wondering, is logP of CON1C(=O)C(=O)N1c1ccc([N+](=O)[O-])cc1 below 0.7?
output: false (0)

input: Lab note: logP threshold 0.7. Does this compound come in strictly under it? CC1CCCC(NNC(=O)c2ccncc2)C1 (centres undefined)
output: true (1)

input: Does this compound meet the criterion logP < 0.7? NNC(=O)c1cnccn1 [PYRAZINE CARBOXYLIC ACID HYDRAZIDE]
output: true (1)

input: Does the reported logP of the following compound sit strictly below 0.7? NNC(=O)C1CCCO1 (centres undefined)
output: true (1)

input: Here's an entry: NNC(=O)c1cccs1 . Is its logP below 0.7?
output: true (1)

input: For NNC(=O)/C=C/c1ccccc1 , is the recorded logP below the cut-off of 0.7?
output: true (1)

input: Determine if CN(C)NC(=O)c1ccco1 shows logP strictly lower than 0.7.
output: true (1)

input: Determine if Cc1ccc(C)n1NC(=O)c1ccco1 shows logP strictly lower than 0.7.
output: false (0)

input: Identify whether the compound C/C(=N\NC(=O)c1ccncc1)c1cccc(CN(c2ccccc2)c2ccccc2)c1O records logP below 0.7.
output: false (0)
